Cited source: PubChem BioAssay (NCATS)

Test system: KB-3-1
Experiment: Cytotoxic Profiling of Annotated Libraries Using Quantitative High-Throughput Screening (AID 1296008); note: % is set by controls: 0 for no effect and ±100 for the full control effect; nearly all actives have a fitted effect of over 60% in size
Settings: Five cell lines viability, CellTiter-Glo ATP luminescence, 48-72 h; active compounds read low
Description: Cell-based phenotypic screening is a commonly used approach to discover biological pathways, novel drug targets, chemical probes and high-quality hit-to-lead molecules. […] A pintool (Kalypsys) was used to transfer 23 nL of compound solution to the 1536-well assay plates. […] Plates were left at room temperature for 10 min before imaging the ATP-coupled luminescence using a ViewLux microplate imager (PerkinElmer, Waltham, MA).
Results filed as inconclusive are left out.
Quantity Measured: max response (%)
// return numeric value only (unit: %, not printed)

Examples with answers:
- Molecule: "O=C1CCC(c2ccccc2)(C2CCN(Cc3ccc(I)cc3)CC2)C(=O)N1 (stereo not drawn)"
  Readout Unit: "%"
  Quantitative Result: -7.17
- Molecule: "O=C(OC[C@H]1O[C@H](O[C@]2(CO)O[C@H](CO)[C@@H](O)[C@@H]2O)[C@H](O)[C@@H](O)[C@@H]1O)c1ccccc1"
  Readout Unit: "%"
  Quantitative Result: 8.19

Turning now to a further molecule:
If you can, please state the reported max response value of C=CCC1=C[C@]2(OC)[C@H](C)[C@@H](c3ccc(O)c(OC)c3)O[C@]2(OC)CC1=O .
5.23
